tested.system: Kappa-type opioid receptor (Homo sapiens) (UniProt P41145)
Sequence (P41145 whole entry, looked up): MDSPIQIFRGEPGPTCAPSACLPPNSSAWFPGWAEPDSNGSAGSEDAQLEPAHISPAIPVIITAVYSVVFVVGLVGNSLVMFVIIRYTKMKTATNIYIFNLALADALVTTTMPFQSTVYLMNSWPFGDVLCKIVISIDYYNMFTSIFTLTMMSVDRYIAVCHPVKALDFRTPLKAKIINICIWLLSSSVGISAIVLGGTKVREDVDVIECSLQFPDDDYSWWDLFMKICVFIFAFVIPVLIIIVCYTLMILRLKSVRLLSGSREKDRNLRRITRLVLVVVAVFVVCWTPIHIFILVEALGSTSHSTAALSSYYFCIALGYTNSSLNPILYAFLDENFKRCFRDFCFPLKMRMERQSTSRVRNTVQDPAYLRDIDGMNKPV
assay.details: kappa opioid receptor blockers – cell-based, luminescence, uHTS (AID 1778)
stated.conditions: KOR beta-arrestin recruitment, antagonist mode; at 10 µM unless noted
Among all 290,000 compounds or so, about 260 (0.09%) were called active. No stated cut-off is given here; in the data, active means inhibition above about 50%; inactive means the rest. This excerpt belongs to a sample that is enriched for actives. Measured potencies and affinities stand elsewhere.
Classes used: true (1) (active), false (0) (inactive)

INSERT INTO assay_data (compound, tested_system, classification) VALUES
  ('O=C(NCc1ccc(Cl)cc1)c1cc(=O)[nH]c2ccccc12', 'Kappa-type opioid receptor (Homo sapiens) (UniProt P41145)', 'false (0)'),
  ('Nc1nc2sc3c(c2c(=O)s1)CCCC3', 'Kappa-type opioid receptor (Homo sapiens) (UniProt P41145)', 'false (0)'),
  ('CCOc1ccc(C(=O)/C=C/Nc2ccc(S(=O)(=O)N=C(N)N)cc2)cc1', 'Kappa-type opioid receptor (Homo sapiens) (UniProt P41145)', 'false (0)'),
  ('Nc1c2c(nc3sc4c(c13)CCCC4)CCCCCC2', 'Kappa-type opioid receptor (Homo sapiens) (UniProt P41145)', 'false (0)'),
  ('O=C(O)c1ccc(-c2ccccc2)[nH]c1=O', 'Kappa-type opioid receptor (Homo sapiens) (UniProt P41145)', 'false (0)'),
  ('CCCCCn1c(SCCCC)nc2c1c(=O)[nH]c(=O)n2C', 'Kappa-type opioid receptor (Homo sapiens) (UniProt P41145)', 'false (0)'),
  ('COC(=O)CC(N)c1ccc(OC)c2ccccc12 (stereo not drawn)', 'Kappa-type opioid receptor (Homo sapiens) (UniProt P41145)', 'false (0)'),
  ('COc1ccc(C(NC(=O)c2ccc(=O)[nH]c2)C(=O)Nc2ccc(C(C)C)cc2)cc1 (stereo not drawn)', 'Kappa-type opioid receptor (Homo sapiens) (UniProt P41145)', 'false (0)'),
  ('O=C1c2ccccc2C(=O)N1c1ncc(Cc2ccc(Cl)cc2)s1', 'Kappa-type opioid receptor (Homo sapiens) (UniProt P41145)', 'false (0)'),
  ('Cc1nc2c(-c3ccc(Cl)cc3)c(C)[nH]n2c(=O)c1Cc1ccccc1', 'Kappa-type opioid receptor (Homo sapiens) (UniProt P41145)', 'true (1)'),
  ('N=C1SC(c2ccccc2)C(=O)N1c1ncc(Cc2ccccc2Cl)s1 (stereo not drawn)', 'Kappa-type opioid receptor (Homo sapiens) (UniProt P41145)', 'false (0)'),
  ('Fc1ccc(NC(=S)NC2CC3CCC(C2)N3Cc2ccco2)cc1 (stereo not drawn)', 'Kappa-type opioid receptor (Homo sapiens) (UniProt P41145)', 'false (0)'),
  ('Cc1ccccc1N(C(=O)c1snc(C(N)=O)c1N)C(C(=O)NCc1ccccc1)c1ccc(O)cc1 (stereo not drawn)', 'Kappa-type opioid receptor (Homo sapiens) (UniProt P41145)', 'false (0)'),
  ('COc1ccc(-c2c(C)[nH]n3c(=O)c(Cc4ccccc4)c(C)nc23)cc1', 'Kappa-type opioid receptor (Homo sapiens) (UniProt P41145)', 'false (0)'),
  ('CN(CC(=O)Nc1cccnc1)S(=O)(=O)c1cc(Cl)ccc1Cl', 'Kappa-type opioid receptor (Homo sapiens) (UniProt P41145)', 'false (0)'),
  ('CCOC(=O)C1CCN(S(=O)(=O)c2cc(C(=O)N3CCCCC3)ccc2OC)CC1', 'Kappa-type opioid receptor (Homo sapiens) (UniProt P41145)', 'false (0)'),
  ('O=C(Nc1nnc(-c2cccs2)o1)c1cccc(C(F)(F)F)c1', 'Kappa-type opioid receptor (Homo sapiens) (UniProt P41145)', 'true (1)'),
  ('Cc1nc2c(-c3ccccc3)c(C)[nH]n2c(=O)c1Cc1ccccc1', 'Kappa-type opioid receptor (Homo sapiens) (UniProt P41145)', 'false (0)'),
  ('CC(=O)Oc1ccc(C23CC4CC(CC(C4)C2)C3)cc1C(=O)O', 'Kappa-type opioid receptor (Homo sapiens) (UniProt P41145)', 'false (0)'),
  ('COc1cccc(C(=O)Nc2nnc(-c3cccs3)o2)c1', 'Kappa-type opioid receptor (Homo sapiens) (UniProt P41145)', 'false (0)'),
  ('CN(C(=O)c1ccc(S(=O)(=O)c2cccc(Cl)c2)c([N+](=O)[O-])c1)C1CCCCC1', 'Kappa-type opioid receptor (Homo sapiens) (UniProt P41145)', 'false (0)'),
  ('CN(C(=O)COC(=O)c1cc2c(s1)CCCCC2)C1CCS(=O)(=O)C1 (stereo not drawn)', 'Kappa-type opioid receptor (Homo sapiens) (UniProt P41145)', 'false (0)'),
  ('CN(C)S(=O)(=O)c1ccc(C(=O)Nc2nnc(-c3cccs3)o2)cc1', 'Kappa-type opioid receptor (Homo sapiens) (UniProt P41145)', 'false (0)');
